Value source: PubChem BioAssay AID256

tested on: CD2F1 mice, L1210 leukemia ip, survival T/C; assay: NCI In Vivo Anticancer Drug Screen. Data for tumor model L1210 Leukemia (intraperitoneal) in CD2F1 (CDF1) mice; conditions: endpoint: mean survival time; dose: 200.0 mg/kg/injection; schedule: Q01DX009 (ip); vehicle: saline; higher = longer survival
Toxic doses and inconclusive results are not listed.
Measurement Name: T/C

Solved entries (count: 10):
Molecule | T/C
O=[N+]([O-])c1ccc(N/N=C2/CCSc3ccccc32)cc1 | 101 % of control
CC(C)(C)C=O | 102 % of control
Oc1ccc(C(=S)N2CCOCC2)cc1 | 95 % of control
CCOC(=O)CCN(CC)CC | 97 % of control
OCC1(O)OCC(O)C(F)C1O (configuration not stated) | 96 % of control
Cc1ccc(C(SCC(N)C(=O)O)(c2ccc(C)cc2)c2ccc(C)cc2)cc1 (configuration not stated) | 210 % of control
CC(C)n1c(=S)[nH]c2ccccc2c1=O | 100 % of control
N#CC(C#N)=NNc1ccc(S(=O)(=O)O)cc1 | 95 % of control
CC1COC(=O)O1 (configuration not stated) | 98 % of control
CCN(CC)CCN(CC)C(=O)C(O)(c1ccccc1)c1ccccc1 | 91 % of control

Problem: Given the entry Nc1nc(Cl)c2ncn(C3CC(O)C(CO)C3)c2n1 (configuration not stated) , report its measured T/C.
Result: 106 % of control

Problem: Now the same for COC(=O)C1C(O)C(C)C(O)OC1C(C)C(O)C(C)/C=C\C=C(/C)C(=O)Nc1c(C)c(OC(C)=O)c2c(c1O)C(=O)C(C)=C1OCOC(/C(C)=C/C(C)=O)=C12 (configuration not stated)
Result: 101 % of control
